# Tested on: ATP;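 further: ATP exposure 15 min at 22 °C before imaging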
# TEST_NAME: switch fluorescence ratio, 500 uM ATP over buffer (Cy3 cluster intensity, sum of 5 cycles each) (fold (ratio)); higher = stronger signal-on switching upon ATP binding; sequences stand for … in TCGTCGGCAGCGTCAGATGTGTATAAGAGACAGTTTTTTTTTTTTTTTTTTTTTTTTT…TC
# TEST_SETTINGS: aptamer strand: ATP DNA aptamer (quencher-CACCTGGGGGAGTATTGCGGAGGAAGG + anchor), 100 nM annealed; ATP concentration: 500 uM
ASSAY_ENDPOINT: switch fluorescence ratio
Could you respond with only the numeric value?

**Query** Query (sequence): `CCTAAAGTTT` ; field requested: switch fluorescence ratio
**Result** 0.983

**Query** Query (sequence): `CTCATAAGTT` ; field requested: switch fluorescence ratio
**Result** 1.01

**Query** Query (sequence): `TTTATCCTAG` ; field requested: switch fluorescence ratio
**Result** 0.976

* * *

# Tested on: ATP;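 further: ATP exposure 15 min at 22 °C before imaging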
# TEST_NAME: switch fluorescence ratio, 500 uM ATP over buffer (Cy3 cluster intensity, sum of 5 cycles each) (fold (ratio)); higher = stronger signal-on switching upon ATP binding; sequences stand for … in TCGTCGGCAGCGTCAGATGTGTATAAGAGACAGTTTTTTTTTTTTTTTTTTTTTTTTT…TC
# TEST_SETTINGS: aptamer strand: ATP DNA aptamer (quencher-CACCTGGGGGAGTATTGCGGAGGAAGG + anchor), 100 nM annealed; ATP concentration: 500 uM
ASSAY_ENDPOINT: switch fluorescence ratio
Could you respond with only the numeric value?

Some entries whose results are on file:
TTTGAGGGCG | 1.01
AATGTCGACC | 1.03
CAGGAACGAG | 1
TATTGGAGGG | 0.974
GGGTATATTG | 0.983
TGCCTGTCTA | 1.02

With those in mind, consider the next sequence.
**Query** API: value(readout=switch fluorescence ratio, system=ATP) for record `TACACCTCTA`;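 further: ATP exposure 15 min at 22 °C before imaging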
**Result** 1.07

* * *

# Tested on: ATP;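 further: ATP exposure 15 min at 22 °C before imaging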
# TEST_NAME: switch fluorescence ratio, 500 uM ATP over buffer (Cy3 cluster intensity, sum of 5 cycles each) (fold (ratio)); higher = stronger signal-on switching upon ATP binding; sequences stand for … in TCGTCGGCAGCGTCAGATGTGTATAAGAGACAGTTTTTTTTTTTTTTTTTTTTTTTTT…TC
# TEST_SETTINGS: aptamer strand: ATP DNA aptamer (quencher-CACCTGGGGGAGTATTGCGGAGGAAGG + anchor), 100 nM annealed; ATP concentration: 500 uM
ASSAY_ENDPOINT: switch fluorescence ratio
Could you respond with only the numeric value?

GGGGGTATCA | 0.98

**Query** Query (sequence): `AGACCTTCTT` ; field requested: switch fluorescence ratio
**Result** 1.51

**Query** Query (sequence): `ACGAGATTAT` ; field requested: switch fluorescence ratio
**Result** 1.02

**Query** Query (sequence): `GAAATAGGG` ; field requested: switch fluorescence ratio
**Result** 0.983

**Query** Query (sequence): `TGATTGTGCA` ; field requested: switch fluorescence ratio
**Result** 0.989

**Query** Query (sequence): `TTAAACGGTA` ; field requested: switch fluorescence ratio
**Result** 1.03

**Query** Query (sequence): `TAGGTGTTTG` ; field requested: switch fluorescence ratio
**Result** 0.999

**Query** Query (sequence): `GCGTTCATGG` ; field requested: switch fluorescence ratio
**Result** 1.04

**Query** Query (sequence): `AGGCGCGCGG` ; field requested: switch fluorescence ratio
**Result** 0.951

* * *

# Test system: ATP;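 further: ATP exposure 15 min at 22 °C before imaging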
# TEST_NAME: switch fluorescence ratio, 500 uM ATP over buffer (Cy3 cluster intensity, sum of 5 cycles each) (fold (ratio)); higher = stronger signal-on switching upon ATP binding; sequences stand for … in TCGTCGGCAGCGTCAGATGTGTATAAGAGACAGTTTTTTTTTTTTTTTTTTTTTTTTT…TC
# TEST_SETTINGS: aptamer strand: ATP DNA aptamer (quencher-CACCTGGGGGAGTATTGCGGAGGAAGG + anchor), 100 nM annealed; ATP concentration: 500 uM
Entries annotated with measured switch fluorescence ratio
Could you respond with only the numeric value?

AGAGGCTGGT | 0.992
TAAAAAGGGG | 0.998
CATCGTATGG | 0.954

With those in mind, consider the next sequence.
**Query** API: value(readout=switch fluorescence ratio, system=ATP) for record `AAGCCGTGTG`;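 further: ATP exposure 15 min at 22 °C before imaging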
**Result** 0.988

* * *

Entries annotated with measured switch fluorescence ratio
# Tested on: ATP;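 further: ATP exposure 15 min at 22 °C before imaging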
# TEST_NAME: switch fluorescence ratio, 500 uM ATP over buffer (Cy3 cluster intensity, sum of 5 cycles each) (fold (ratio)); higher = stronger signal-on switching upon ATP binding; sequences stand for … in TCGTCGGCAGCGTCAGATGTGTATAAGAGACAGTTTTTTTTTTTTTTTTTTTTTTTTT…TC
# TEST_SETTINGS: aptamer strand: ATP DNA aptamer (quencher-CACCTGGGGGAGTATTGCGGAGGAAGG + anchor), 100 nM annealed; ATP concentration: 500 uM

Some entries whose results are on file:
TGTATTTTT | 0.986
ATTACAGGGC | 1.03
TGACGTCTGG | 1.02
TCGGAGGAGC | 1.05
GGGGTTTTTT | 0.986

**Query** Query (sequence): `ACGGGGATTG` ; field requested: switch fluorescence ratio
**Result** 1.02

* * *

# System: ATP;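 further: ATP exposure 15 min at 22 °C before imaging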
# TEST_NAME: switch fluorescence ratio, 500 uM ATP over buffer (Cy3 cluster intensity, sum of 5 cycles each) (fold (ratio)); higher = stronger signal-on switching upon ATP binding; sequences stand for … in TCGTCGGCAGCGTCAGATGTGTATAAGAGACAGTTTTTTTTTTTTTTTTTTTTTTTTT…TC
# TEST_SETTINGS: aptamer strand: ATP DNA aptamer (quencher-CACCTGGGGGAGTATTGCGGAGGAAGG + anchor), 100 nM annealed; ATP concentration: 500 uM
Entries annotated with measured switch fluorescence ratio
Could you respond with only the numeric value?

Some entries whose results are on file:
AAAATGACGT | 1.04
ATTGAAGGCG | 1

**Query** API: value(readout=switch fluorescence ratio, system=ATP) for record `AATTTCGGGA`;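 further: ATP exposure 15 min at 22 °C before imaging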
**Result** 1.01

* * *

# Tested on: ATP;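 further: ATP exposure 15 min at 22 °C before imaging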
# TEST_NAME: switch fluorescence ratio, 500 uM ATP over buffer (Cy3 cluster intensity, sum of 5 cycles each) (fold (ratio)); higher = stronger signal-on switching upon ATP binding; sequences stand for … in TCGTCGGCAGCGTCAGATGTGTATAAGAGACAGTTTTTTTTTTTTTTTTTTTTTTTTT…TC
# TEST_SETTINGS: aptamer strand: ATP DNA aptamer (quencher-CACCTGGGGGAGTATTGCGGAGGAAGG + anchor), 100 nM annealed; ATP concentration: 500 uM
ASSAY_ENDPOINT: switch fluorescence ratio

TAAAGCAGGA | 0.993

**Query** Query (sequence): `GGGAACAGGG` ; field requested: switch fluorescence ratio
**Result** 1

**Query** Query (sequence): `TATAGTGGCG` ; field requested: switch fluorescence ratio
**Result** 1.02

* * *

# Test system: ATP;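 further: ATP exposure 15 min at 22 °C before imaging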
# TEST_NAME: switch fluorescence ratio, 500 uM ATP over buffer (Cy3 cluster intensity, sum of 5 cycles each) (fold (ratio)); higher = stronger signal-on switching upon ATP binding; sequences stand for … in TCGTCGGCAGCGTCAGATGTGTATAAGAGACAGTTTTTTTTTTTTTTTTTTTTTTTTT…TC
# TEST_SETTINGS: aptamer strand: ATP DNA aptamer (quencher-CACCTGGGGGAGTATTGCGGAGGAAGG + anchor), 100 nM annealed; ATP concentration: 500 uM
ASSAY_ENDPOINT: switch fluorescence ratio
Could you respond with only the numeric value?

**Query** Query (sequence): `TCAGCATGTA` ; field requested: switch fluorescence ratio
**Result** 1.04

**Query** Query (sequence): `CGGTTGGGAG` ; field requested: switch fluorescence ratio
**Result** 1.02

**Query** Query (sequence): `AGAGCCCTTA` ; field requested: switch fluorescence ratio
**Result** 1.01

**Query** Query (sequence): `AGTGTATACT` ; field requested: switch fluorescence ratio
**Result** 0.989

**Query** Query (sequence): `GGGGCTAGAG` ; field requested: switch fluorescence ratio
**Result** 1.4

**Query** Query (sequence): `CAGAAGGGTT` ; field requested: switch fluorescence ratio
**Result** 0.997

**Query** Query (sequence): `TCGACAAAGG` ; field requested: switch fluorescence ratio
**Result** 1.07

**Query** Query (sequence): `GGAGTAGGCT` ; field requested: switch fluorescence ratio
**Result** 0.938

**Query** Query (sequence): `GGTCGGGGTC` ; field requested: switch fluorescence ratio
**Result** 0.966

* * *

# Tested on: ATP;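 further: ATP exposure 15 min at 22 °C before imaging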
# TEST_NAME: switch fluorescence ratio, 500 uM ATP over buffer (Cy3 cluster intensity, sum of 5 cycles each) (fold (ratio)); higher = stronger signal-on switching upon ATP binding; sequences stand for … in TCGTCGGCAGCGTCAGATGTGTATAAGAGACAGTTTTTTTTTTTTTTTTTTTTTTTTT…TC
# TEST_SETTINGS: aptamer strand: ATP DNA aptamer (quencher-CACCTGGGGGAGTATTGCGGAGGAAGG + anchor), 100 nM annealed; ATP concentration: 500 uM
Entries annotated with measured switch fluorescence ratio

**Query** API: value(readout=switch fluorescence ratio, system=ATP) for record `AGGGTGAGGG`;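 further: ATP exposure 15 min at 22 °C before imaging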
**Result** 0.984

**Query** API: value(readout=switch fluorescence ratio, system=ATP) for record `AAATGTGGGG`;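 further: ATP exposure 15 min at 22 °C before imaging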
**Result** 0.976

**Query** API: value(readout=switch fluorescence ratio, system=ATP) for record `TGAGGTATAT`;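 further: ATP exposure 15 min at 22 °C before imaging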
**Result** 1.01

**Query** API: value(readout=switch fluorescence ratio, system=ATP) for record `TTGTGGTTTC`;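 further: ATP exposure 15 min at 22 °C before imaging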
**Result** 1.01

**Query** API: value(readout=switch fluorescence ratio, system=ATP) for record `AATTGGGCTA`;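 further: ATP exposure 15 min at 22 °C before imaging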
**Result** 0.999

**Query** API: value(readout=switch fluorescence ratio, system=ATP) for record `CGTTATTGGC`;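 further: ATP exposure 15 min at 22 °C before imaging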
**Result** 1.02
